// Ki lookup, one value per entry
Molecular target: δ opioid receptor (Rattus norvegicus)
Sequence (P33533 whole entry): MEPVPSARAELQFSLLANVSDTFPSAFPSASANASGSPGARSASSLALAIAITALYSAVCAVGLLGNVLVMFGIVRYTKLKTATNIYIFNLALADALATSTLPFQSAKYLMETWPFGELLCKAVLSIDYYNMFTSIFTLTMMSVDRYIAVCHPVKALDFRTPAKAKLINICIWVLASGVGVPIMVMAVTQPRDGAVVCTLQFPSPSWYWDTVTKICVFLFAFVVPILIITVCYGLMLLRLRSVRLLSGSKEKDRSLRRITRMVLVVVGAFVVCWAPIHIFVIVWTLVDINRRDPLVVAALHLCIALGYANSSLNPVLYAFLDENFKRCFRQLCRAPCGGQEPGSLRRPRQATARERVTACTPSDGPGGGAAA
Assay: Radioligand binding, delta sites, displacement of [3H]DADLE in rat brain membranes
Parameters: Rat membranes were prepared each day using a partially thawed frozen rat brain; from tissue; host or cells: rat brain membranes
Just the number plus its unit, please.

{"molecule": "COC(=O)c1c(N)sc2c1[C@@H]1Oc3c(O)ccc4c3[C@@]13CCN(CC1CC1)[C@H](C4)[C@]3(O)C2 [Compound 8b]", "result": "6.6 nM"}
{"molecule": "N#Cc1c(N)sc2c1[C@@H]1Oc3c(O)ccc4c3[C@@]13CCN(CC1CC1)[C@H](C4)[C@]3(O)C2 [Compound 8a]", "result": "2.6 nM"}
{"molecule": "N#Cc1cnc2c(c1)CC1(O)C3Cc4ccc(O)c5c4C1(CCN3CC1CC1)C2O5 (centres unmarked) [Compound 7c]", "result": "4.5 nM"}
{"molecule": "Nc1sc2c(c1C(=O)c1ccccc1)[C@@H]1Oc3c(O)ccc4c3[C@@]13CCN(CC1CC1)[C@H](C4)[C@]3(O)C2 [Compound 8f]", "result": "14 nM"}

Missing value: Ki, δ opioid receptor (Rattus norvegicus), entry NC(=O)c1c(N)sc2c1[C@@H]1Oc3c(O)ccc4c3[C@@]13CCN(CC1CC1)[C@H](C4)[C@]3(O)C2 [Compound 8e] . Fill in?
3.7 nM
